experiment.summary: Kinetic solubility of the compound by chemiluminescent nitrogen detection assay
Assay type: physicochemical
settings: read-out: Kinetic_solubility
Please respond with reported solubility kinetic for every item in the list.

q: Any idea what its solubility kinetic is? The molecule is `COc1cccc2c1c(NS(=O)(=O)c1ccc(Cl)s1)nn2Cc1cccc(CNC(=O)[C@@H]2COCCN2)c1`
a: ≥ 212 µg/mL

q: Any idea what its solubility kinetic is? The molecule is `COc1cccc2c1c(NS(=O)(=O)c1ccc(Cl)s1)nn2Cc1cccc(CNC(=O)C(C)(C)O)c1`
a: ≥ 162 µg/mL

q: Any idea what its solubility kinetic is? The molecule is `COc1cccc2c1c(NS(=O)(=O)c1ccc(Cl)s1)nn2Cc1cccc(CNC(=O)C(C)(C)N)c1`
a: ≥ 180 µg/mL

q: Any idea what its solubility kinetic is? The molecule is CC(=O)NCc1cccc(Cn2nc(NS(=O)(=O)c3ccc(Cl)s3)c3c(C(C)O)cccc32)c1 (configuration not stated)
a: ≥ 208 µg/mL

q: Any idea what its solubility kinetic is? The molecule is `COc1c(F)ccc2c1c(NS(=O)(=O)c1ccc(Cl)s1)nn2Cc1cccc(CNC(=O)C(C)(C)O)c1`
a: ≥ 174 µg/mL

q: Any idea what its solubility kinetic is? The molecule is `COc1ccc(F)c2c1c(NS(=O)(=O)c1ccc(Cl)s1)nn2Cc1cccc(CNC(C)=O)c1`
a: ≥ 177 µg/mL

q: Any idea what its solubility kinetic is? The molecule is `COc1cccc2c1c(NS(=O)(=O)c1cccc(Cl)c1Cl)nn2Cc1cccc(CNC(=O)C(C)(C)O)c1`
a: 157 µg/mL

q: Any idea what its solubility kinetic is? The molecule is `CC(=O)NCc1cccc(Cn2nc(NS(=O)(=O)c3ccc(Cl)s3)c3c(C(C)(C)O)cccc32)c1`
a: ≥ 159 µg/mL

q: Any idea what its solubility kinetic is? The molecule is `COc1cccc2c1c(NS(=O)(=O)c1ccc(Cl)s1)nn2Cc1cccc(CNC(C)=O)c1`
a: ≥ 124 µg/mL

q: Any idea what its solubility kinetic is? The molecule is `CC(=O)NCc1cccc(Cn2nc(NS(=O)(=O)c3ccc(Cl)s3)c3c(C(F)F)cccc32)c1`
a: ≥ 188 µg/mL

q: Any idea what its solubility kinetic is? The molecule is COc1cccc2c1c(NS(=O)(=O)c1ccc(Cl)s1)nn2Cc1cccc(CNC(=O)C2COCCN2C)c1 (single isomer, unassigned; isomer B)
a: ≥ 180 µg/mL

q: Any idea what its solubility kinetic is? The molecule is `CC(=O)NCc1cccc(Cn2nc(NS(=O)(=O)c3ccc(Cl)s3)c3ccccc32)c1`
a: ≥ 117 µg/mL

q: Any idea what its solubility kinetic is? The molecule is `COc1cccc2c1c(NS(=O)(=O)c1cccc(Cl)c1)nn2Cc1cccc(CNC(=O)C(C)(C)O)c1`
a: ≥ 198 µg/mL

q: Any idea what its solubility kinetic is? The molecule is `COc1cccc2c1c(NS(=O)(=O)c1ccc(Cl)s1)nn2Cc1cccc(CNC(=O)[C@H]2COCCN2)c1`
a: ≥ 250 µg/mL

q: Any idea what its solubility kinetic is? The molecule is `CC(=O)NCc1cccc(Cn2nc(NS(=O)(=O)c3ccc(Cl)s3)c3c(F)cccc32)c1`
a: ≥ 139 µg/mL

q: Any idea what its solubility kinetic is? The molecule is `CC(=O)NCc1cccc(Cn2nc(NS(=O)(=O)c3ccc(Cl)s3)c3c(CO)cccc32)c1`
a: ≥ 113 µg/mL

q: Any idea what its solubility kinetic is? The molecule is `CC(=O)NCc1cccc(Cn2nc(NS(=O)(=O)c3ccc(Cl)s3)c3c(O)cccc32)c1`
a: ≥ 166 µg/mL

q: Any idea what its solubility kinetic is? The molecule is `COc1cccc2c1c(NS(=O)(=O)c1ccc(Cl)s1)nn2Cc1cc(CNC(C)=O)ccn1`
a: ≥ 141 µg/mL

q: Any idea what its solubility kinetic is? The molecule is COc1cccc2c1c(NS(=O)(=O)c1ccc(Cl)s1)nn2Cc1cccc(CNC(=O)C2CCCO2)c1 (configuration not stated)
a: ≥ 153 µg/mL

q: Any idea what its solubility kinetic is? The molecule is `COc1cccc2c1c(NS(=O)(=O)c1ccc(Cl)s1)nn2Cc1cccc(CNC(=O)C2CCOCC2)c1`
a: ≥ 193 µg/mL

q: Any idea what its solubility kinetic is? The molecule is `COc1c(F)ccc2c1c(NS(=O)(=O)c1ccc(Cl)s1)nn2Cc1cccc(CNC(C)=O)c1`
a: ≥ 199 µg/mL

q: Any idea what its solubility kinetic is? The molecule is `COc1cccc2c1c(NS(=O)(=O)c1ccc(Cl)s1)nn2Cc1cccc(CNC2COC2)c1`
a: 122 µg/mL

q: Any idea what its solubility kinetic is? The molecule is `COc1cc(F)cc2c1c(NS(=O)(=O)c1ccc(Cl)s1)nn2Cc1cccc(CNC(C)=O)c1`
a: ≥ 161 µg/mL

q: Any idea what its solubility kinetic is? The molecule is `COc1cccc2c1c(NS(=O)(=O)c1ccc(C)c(F)c1)nn2Cc1cccc(CNC(=O)C(C)(C)O)c1`
a: 36 µg/mL

q: Any idea what its solubility kinetic is? The molecule is `CC(=O)NCc1cccc(Cn2nc(NS(=O)(=O)c3ccc(Cl)s3)c3c(C#N)cccc32)c1`
a: ≥ 155 µg/mL

q: Any idea what its solubility kinetic is? The molecule is `COc1cccc2c1c(NS(=O)(=O)c1ccc(Cl)c(Cl)c1)nn2Cc1cccc(CNC(=O)C(C)(C)O)c1`
a: 76 µg/mL

q: Any idea what its solubility kinetic is? The molecule is `CN[C@H](C)C(=O)NCc1cccc(Cn2nc(NS(=O)(=O)c3ccc(Cl)s3)c3c(OC)cccc32)c1`
a: 191 µg/mL

q: Any idea what its solubility kinetic is? The molecule is COc1cccc2c1c(NS(=O)(=O)c1ccc(Cl)s1)nn2Cc1cccc(CNC(=O)C2CCO2)c1 (configuration not stated)
a: 124 µg/mL

q: Any idea what its solubility kinetic is? The molecule is `CC(=O)NCc1cccc(Cn2nc(NS(=O)(=O)c3ccc(Cl)s3)c3c(C(C)=O)cccc32)c1`
a: 57 µg/mL

q: Any idea what its solubility kinetic is? The molecule is `COc1cccc2c1c(NS(=O)(=O)c1ccc(Cl)s1)nn2Cc1ccnc(CNC(C)=O)c1`
a: ≥ 161 µg/mL

q: Any idea what its solubility kinetic is? The molecule is `CC(=O)NCc1cccc(Cn2nc(NS(=O)(=O)c3ccc(Cl)s3)c3c(Cl)cccc32)c1`
a: ≥ 226 µg/mL

q: Any idea what its solubility kinetic is? The molecule is `COc1cccc2c1c(NS(=O)(=O)c1ccc(Cl)s1)nn2Cc1cccc(CNC(=O)C2COC2)c1`
a: ≥ 173 µg/mL

====

Please respond with reported pIC50 for every item in the list.
test.target: UniProt P51679
Sequence (P51679 whole entry): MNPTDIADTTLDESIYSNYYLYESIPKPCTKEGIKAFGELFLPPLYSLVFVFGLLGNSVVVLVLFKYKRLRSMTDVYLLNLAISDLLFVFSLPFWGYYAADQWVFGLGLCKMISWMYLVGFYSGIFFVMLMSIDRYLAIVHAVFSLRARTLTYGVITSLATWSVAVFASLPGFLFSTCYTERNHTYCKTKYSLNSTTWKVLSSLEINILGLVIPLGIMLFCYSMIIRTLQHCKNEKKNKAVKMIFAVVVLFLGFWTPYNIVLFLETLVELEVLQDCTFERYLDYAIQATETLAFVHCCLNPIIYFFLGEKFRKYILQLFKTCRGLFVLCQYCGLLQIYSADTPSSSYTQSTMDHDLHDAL
experiment.summary: Antagonist activity at human recombinant CCR4 receptor expressed in CHO cell membranes by [35S]GTPgammaS binding assay
In simple prose, pIC50 is minus the logarithm base ten of a concentration in moles per litre.

q: Any idea what its pIC50 is? The compound is `COc1cccc2c1c(NS(=O)(=O)c1ccc(Cl)s1)nn2Cc1cccc(CNC(=O)C(C)(C)N)c1`
a: 7.80

q: Any idea what its pIC50 is? The compound is `COc1cccc2c1c(NS(=O)(=O)c1ccc(C)c(F)c1)nn2Cc1cccc(CNC(=O)C(C)(C)O)c1`
a: 7.80

q: Any idea what its pIC50 is? The compound is `COc1c(F)ccc2c1c(NS(=O)(=O)c1ccc(Cl)s1)nn2Cc1cccc(CNC(C)=O)c1`
a: 7.90

q: Any idea what its pIC50 is? The compound is `COc1cccc2c1c(NS(=O)(=O)c1ccc(Cl)s1)nn2Cc1cccc(CNC(=O)C(C)(C)O)c1`
a: 7.40

q: Any idea what its pIC50 is? The compound is `COc1cccc2c1c(NS(=O)(=O)c1ccc(Cl)s1)nn2Cc1cc(CNC(C)=O)ccn1`
a: 6.80

q: Any idea what its pIC50 is? The compound is `CC(=O)NCc1cccc(Cn2nc(NS(=O)(=O)c3ccc(Cl)s3)c3c(C(C)(C)O)cccc32)c1`
a: 7.00

q: Any idea what its pIC50 is? The compound is `COc1c(F)ccc2c1c(NS(=O)(=O)c1ccc(Cl)s1)nn2Cc1cccc(CNC(=O)C(C)(C)O)c1`
a: 7.40

q: Any idea what its pIC50 is? The compound is `CC(=O)NCc1cccc(Cn2nc(NS(=O)(=O)c3ccc(Cl)s3)c3c(O)cccc32)c1`
a: 7.90

q: Any idea what its pIC50 is? The compound is `CC(=O)NCc1cccc(Cn2nc(NS(=O)(=O)c3ccc(Cl)s3)c3c(CO)cccc32)c1`
a: 8.20

q: Any idea what its pIC50 is? The compound is `COc1ccc(F)c2c1c(NS(=O)(=O)c1ccc(Cl)s1)nn2Cc1cccc(CNC(C)=O)c1`
a: 7.10

q: Any idea what its pIC50 is? The compound is `CN[C@H](C)C(=O)NCc1cccc(Cn2nc(NS(=O)(=O)c3ccc(Cl)s3)c3c(OC)cccc32)c1`
a: 7.80

The reported numbers originate from ChEMBL document CHEMBL2321840.
